assay: Inhibition of human ntSI expressed in Drosophila S2 cells assessed as amount of glucose produced using maltose as a substrate after 45 mins by glucose oxidase assay; assay type: cell-based
So I've got a bunch of compounds here, and I need their pKi values.
// scale note: pKi = -log10(conc_M); give the bare number

Please give the documented pKi of O=S(=O)([O-])O[C@@H](CO)[C@H](O)C[S@+]1C[C@@H](O)[C@H](O)[C@H]1CO
6.56

Please give the documented pKi of O=S(=O)([O-])O[C@@H]([C@H](O)[C@H](O)[C@@H](O)CO)[C@H](O)C[S+]1C[C@@H](O)[C@H](O)[C@H]1CO (stereo partly specified)
6.22

Please give the documented pKi of C[C@H]1O[C@H](O[C@H]2[C@H](O)[C@@H](O)[C@@H](O[C@H]3[C@H](O)[C@@H](O)C(O)O[C@@H]3CO)O[C@@H]2CO)[C@H](O)[C@@H](O)[C@@H]1N[C@H]1C=C(CO)[C@@H](O)[C@H](O)[C@H]1O (stereo partly specified)
4.85

Please give the documented pKi of OCCN1C[C@H](O)[C@@H](O)[C@H](O)[C@H]1CO
6.83

Please give the documented pKi of OC[C@@H]1[C@@H](O)[C@H](O)C[S+]1C[C@@H](O)[C@@H](O)[C@H](O)[C@H](O)[C@@H](O)CO (stereo partly specified)
7.92

Please give the documented pKi of O=S(=O)([O-])O[C@@H](CO)[C@H](O)C[Se+]1C[C@@H](O)[C@H](O)[C@H]1CO (stereo partly specified)
6.80

###

assay: Inhibition of mouse his-tagged ctSI expressed in Sf9 cells assessed as amount of glucose produced using maltose as a substrate after 45 mins by glucose oxidase assay
So I've got a bunch of molecules here, and I need their pKi values.
// scale note: pKi = -log10(conc_M); give the bare number

Please give the documented pKi of O=S(=O)([O-])O[C@@H](CO)[C@H](O)C[S@+]1C[C@@H](O)[C@H](O)[C@H]1CO [SALACINOL]
7.33

Please give the documented pKi of O=S(=O)([O-])O[C@@H](CO)[C@H](O)C[Se+]1C[C@@H](O)[C@H](O)[C@H]1CO (stereo partly specified) [BLINTOL]
7.54

Please give the documented pKi of O=S(=O)([O-])O[C@@H]([C@H](O)[C@H](O)[C@@H](O)CO)[C@H](O)C[S+]1C[C@@H](O)[C@H](O)[C@H]1CO (stereo partly specified) [KOTALANOL]
7.38

Please give the documented pKi of C[C@H]1O[C@H](O[C@H]2[C@H](O)[C@@H](O)[C@@H](O[C@H]3[C@H](O)[C@@H](O)C(O)O[C@@H]3CO)O[C@@H]2CO)[C@H](O)[C@@H](O)[C@@H]1N[C@H]1C=C(CO)[C@@H](O)[C@H](O)[C@H]1O (stereo partly specified) [ACARBOSE]
6.61

Please give the documented pKi of OCCN1C[C@H](O)[C@@H](O)[C@H](O)[C@H]1CO [MIGLITOL]
6.89

Please give the documented pKi of OC[C@@H]1[C@@H](O)[C@H](O)C[S+]1C[C@@H](O)[C@@H](O)[C@H](O)[C@H](O)[C@@H](O)CO (stereo partly specified) [DE-O-SULFONATED KOTALANOL]
7.59

Source listed as ChEMBL document CHEMBL1833806.
